I'd be grateful if you could share measured EC50 for these entries.
# SYSTEM: T1, GDF-7 (R&D SYSTEMS)
# T1 sequence (Q7Z4P5 322-450, species assumed, looked up): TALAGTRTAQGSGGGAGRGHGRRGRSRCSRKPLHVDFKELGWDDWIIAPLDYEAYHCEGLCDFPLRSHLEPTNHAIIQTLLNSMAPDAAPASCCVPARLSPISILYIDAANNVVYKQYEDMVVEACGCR
# MEASUREMENT NOTES: GDF-7 capture on peptide-coated sutures; anti-GDF-7 antibody/AP, pNPP read-out; relative EC50; lower limit told of the whole group
Square brackets hold non-standard residues; d marks the D form. Ends that are not written are not given here. * marks the point of attachment. Biotin = O=C1N[C@H]2[C@H](CS[C@H]2CCCCC(=O)*)N1; (MP)2 = not defined here

get_value(item= [code s][code s]GGVGGWALFETLRGKEV[code s][code r]GSSGYFRAFRKFVKPFKRAFKGSSGK(Biotin)-NH2 (not fully specified) [SEQ ID NO 155] , readout=EC50) returns > 20 nM

get_value(item= [code s][code s]GGVGGWALFETLRGKEV[code s][code r][(MP)2]YFRAFRKFVKPFKRAFKGSSGK(Biotin)-NH2 (not fully specified; reading uncertain) [SEQ ID NO 148] , readout=EC50) returns > 20 nM

# credit: patent US20090246248A1
